- Tested on: MOLM14
- Assay Explanation: Proliferation assay (spheroid assay) MOLM14
- Type: cell-based, human
- Measurement Setup: Homo sapiens, MOLM-14, MOLM14; averaged values; read-out: Spheroid assay MOLM14 (IC50 (μM))
Assay Metric: IC50 (µM)
Your answer is read as µM, so omit the unit and give the number.

Recorded IC50, per entry:
1. Cc1ccc(CN2CC[C@]3(CCN(c4ncnc5sc(CC(F)(F)F)cc45)C3)C2)cc1 (single isomer, unassigned)	1.2
2. FC(F)(F)Cc1cc2c(N3CCC4(CN(Cc5ccc6nccn6c5)C4)C3)ncnc2s1	10.1
3. CC(C)[C@@H](C1CNC1)N1CC2(CCN(c3ncnc4sc(CC(F)(F)F)cc34)C2)C1	10.3
4. C[C@@H]1CN[C@H](C(=O)N2CC3(C2)CN(c2ncnc4sc(CC(F)(F)F)cc24)C3)C1	1.8
5. C[C@H](c1cnn(C)c1)N1CC2(CCN(c3ncnc4sc(CC(F)(F)F)cc34)C2)C1	12.4
6. CC(C)[C@H](C1CNC1)N1CC2(CCN(c3ncnc4sc(CC(F)(F)F)cc34)C2)C1	0.86

Please turn your attention to the following entry.
Ask | Quick check: IC50 on MOLM14, item FC(F)(F)Cc1cc2c(N3CCC[C@]4(CCN(Cc5ccccc5)C4)C3)ncnc2s1 (single isomer, unassigned) [Compound 21a] ?
Reply | 12.1

---

Measured IC50 values are reported for all entries that follow.
- Test system: MOLM14
- Assay Explanation: Proliferation assay (spheroid assay) MOLM14
- Type: cell-based, human
- Measurement Setup: Homo sapiens, MOLM-14, MOLM14; averaged values; read-out: Spheroid assay MOLM14 (IC50 (μM))
Your answer is read as µM, so omit the unit and give the number.

1) CC(Cc1ccc(F)cc1)N1CC2(CCN(c3ncnc4sc(CC(F)(F)F)cc34)C2)C1 (stereo not drawn)	1.5
2) CC(C)C(CC1CCNCC1)N1CC2(CCN(c3ncnc4sc(CC(F)(F)F)cc34)C2)C1 (stereo not drawn)	1.5
3) FC(F)(F)Cc1cc2c(N3CCC4(CCN(Cc5ccccc5)C4)CC3)ncnc2s1	5.6
4) CC(C)C(CC1CCN(C)CC1)N1CC2(CCN(c3ncnc4sc(CC(F)(F)F)cc34)C2)C1 (stereo not drawn)	0.96
5) FC(F)(F)Cc1cc2c(N3CC[C@@]4(CCN(Cc5ccccc5)C4)C3)ncnc2s1 (single isomer, unassigned) [Compound 20a]	5

Ask | Would you mind telling me what IC50 value was observed for FC(F)(F)Cc1cc2c(N3CC4(CN(Cc5ccccc5)C4)C3)ncnc2s1 ?
Reply | 4.9

Ask | Would you mind telling me what IC50 value was observed for O=C([C@@H]1CC2(CC2)CN1)N1CC2(CCN(c3ncnc4sc(CC(F)(F)F)cc34)C2)C1 ?
Reply | 11.3

Ask | Would you mind telling me what IC50 value was observed for CC(C)[C@@H](c1cn[nH]c1)N1CC2(CCN(c3ncnc4sc(CC(F)(F)F)cc34)C2)C1 ?
Reply | 2

Ask | Would you mind telling me what IC50 value was observed for CC(C1CCOCC1)N1CC2(CCN(c3ncnc4sc(CC(F)(F)F)cc34)C2)C1 (single isomer, unassigned) [Compound 155] ?
Reply | 1.2

Ask | Would you mind telling me what IC50 value was observed for C[C@H]1CN[C@H](C(=O)N2CC3(C2)CN(c2ncnc4sc(CC(F)(F)F)cc24)C3)C1 ?
Reply | 3.4

Ask | Would you mind telling me what IC50 value was observed for Fc1ccc(CN2CC[C@]3(CCN(c4ncnc5sc(CC(F)(F)F)cc45)C3)C2)cc1 (single isomer, unassigned) ?
Reply | 1.2
